# target or system: UniProtKB Q5BJF2
# Sequence (Q5BJF2 whole entry): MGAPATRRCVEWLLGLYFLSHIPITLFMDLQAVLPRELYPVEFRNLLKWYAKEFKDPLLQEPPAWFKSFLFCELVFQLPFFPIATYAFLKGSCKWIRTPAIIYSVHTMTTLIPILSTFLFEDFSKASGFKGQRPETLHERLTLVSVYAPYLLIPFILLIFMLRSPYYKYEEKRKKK
quantity name: pKi
Scale: negative log10 of molar concentration, which is what pKi denotes.

Here CCN(CCCNC(=O)c1ccc(-c2ccncc2)cc1)CCNC(=O)c1cc(I)cc(OC)c1OC was tested on UniProtKB Q5BJF2, and its pKi came to 5.64

----------
# target or system: UniProtKB P35462
# Sequence (P35462 whole entry): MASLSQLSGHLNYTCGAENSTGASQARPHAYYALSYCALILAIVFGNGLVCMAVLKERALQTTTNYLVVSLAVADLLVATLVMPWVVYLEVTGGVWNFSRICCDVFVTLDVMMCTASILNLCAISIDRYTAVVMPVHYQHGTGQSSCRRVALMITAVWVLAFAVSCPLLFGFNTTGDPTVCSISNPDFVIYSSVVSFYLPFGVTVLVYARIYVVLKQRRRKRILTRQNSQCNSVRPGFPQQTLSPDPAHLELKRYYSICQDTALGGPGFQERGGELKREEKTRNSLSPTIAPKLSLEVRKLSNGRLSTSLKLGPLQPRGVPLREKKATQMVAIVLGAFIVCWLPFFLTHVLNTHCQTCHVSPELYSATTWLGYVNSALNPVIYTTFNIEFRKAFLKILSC
quantity name: pKi
Quick note: pKi values are minus log10 of concentrations in mol/L.

Hey, UniProtKB P35462 data for CCN(CCCNC(=O)c1ccc(-c2ccncc2)cc1)CCNC(=O)c1cc(I)cc(OC)c1OC [HY-3-24] : pKi came out at 8.92

----------
# target or system: norepinephrine transporter (Homo sapiens, UniProt P23975)
# Sequence (P23975 whole entry, species assumed): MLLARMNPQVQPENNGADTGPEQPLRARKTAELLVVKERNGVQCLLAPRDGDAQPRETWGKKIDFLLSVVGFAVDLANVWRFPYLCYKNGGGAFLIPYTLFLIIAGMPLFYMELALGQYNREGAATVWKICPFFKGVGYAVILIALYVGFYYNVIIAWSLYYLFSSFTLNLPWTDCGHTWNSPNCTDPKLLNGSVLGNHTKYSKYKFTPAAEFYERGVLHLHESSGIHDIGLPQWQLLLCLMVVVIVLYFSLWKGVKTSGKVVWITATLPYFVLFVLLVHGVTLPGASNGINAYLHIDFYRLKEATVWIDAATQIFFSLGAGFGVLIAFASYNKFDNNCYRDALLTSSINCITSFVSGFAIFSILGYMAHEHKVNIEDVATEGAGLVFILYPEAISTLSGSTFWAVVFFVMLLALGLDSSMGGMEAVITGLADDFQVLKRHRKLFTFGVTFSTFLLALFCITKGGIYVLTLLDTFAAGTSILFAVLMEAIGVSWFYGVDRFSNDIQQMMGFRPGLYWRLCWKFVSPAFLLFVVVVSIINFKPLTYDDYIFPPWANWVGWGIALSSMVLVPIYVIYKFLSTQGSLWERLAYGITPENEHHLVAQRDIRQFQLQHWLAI
quantity name: Ki (µM)
Write down the numeric answer in µM and omit the unit.

Short answer on norepinephrine transporter (Homo sapiens, UniProt P23975) for CCN(CCCNC(=O)c1ccc(-c2ccncc2)cc1)CCNC(=O)c1cc(I)cc(OC)c1OC [HY-3-24] , Ki: 5.95

----------
# target or system: ɤ-aminobutyric acid type A
# assay: PDSP binding screen
# recorded conditions: HCl salt
quantity name: pKi
Quick note: pKi means taking -log10 of the concentration in moles per liter.

The measured pKi associated with CCN(CCCNC(=O)c1ccc(-c2ccncc2)cc1)CCNC(=O)c1cc(I)cc(OC)c1OC reads 5.95

----------
# target or system: adrenergic alpha2C (Homo sapiens)
# Sequence (P18825 1-462): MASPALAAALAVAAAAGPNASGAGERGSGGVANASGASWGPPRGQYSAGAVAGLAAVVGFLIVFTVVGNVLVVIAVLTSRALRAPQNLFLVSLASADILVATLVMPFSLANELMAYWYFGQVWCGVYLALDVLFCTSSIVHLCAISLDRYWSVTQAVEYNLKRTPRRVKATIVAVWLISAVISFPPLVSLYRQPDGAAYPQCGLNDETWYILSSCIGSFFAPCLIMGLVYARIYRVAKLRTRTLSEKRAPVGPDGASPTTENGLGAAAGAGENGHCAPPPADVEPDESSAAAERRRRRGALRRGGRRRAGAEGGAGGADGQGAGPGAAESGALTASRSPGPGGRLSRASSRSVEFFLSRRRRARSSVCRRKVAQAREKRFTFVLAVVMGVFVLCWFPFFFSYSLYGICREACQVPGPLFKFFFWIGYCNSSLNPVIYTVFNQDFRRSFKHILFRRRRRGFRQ
quantity name: Ki (nM)
Write the number in nM without appending the unit.

Let me check: CCN(CCCNC(=O)c1ccc(-c2ccncc2)cc1)CCNC(=O)c1cc(I)cc(OC)c1OC [HY-3-24] , system adrenergic alpha2C (Homo sapiens), measured Ki is 1900

----------
# target or system: UniProt:P28221
# Sequence (P28221 whole entry): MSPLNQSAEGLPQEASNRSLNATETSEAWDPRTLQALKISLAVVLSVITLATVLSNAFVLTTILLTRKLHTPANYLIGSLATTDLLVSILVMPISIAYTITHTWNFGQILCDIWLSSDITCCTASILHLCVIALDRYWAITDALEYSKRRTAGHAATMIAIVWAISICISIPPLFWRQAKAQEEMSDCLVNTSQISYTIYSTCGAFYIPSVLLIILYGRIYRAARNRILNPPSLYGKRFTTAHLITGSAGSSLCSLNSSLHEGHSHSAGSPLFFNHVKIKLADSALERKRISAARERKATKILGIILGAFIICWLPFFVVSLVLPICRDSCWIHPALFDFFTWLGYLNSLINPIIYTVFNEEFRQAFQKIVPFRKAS
quantity name: pKi
Note on units: pKi is unitless, being -log10 of a concentration expressed in mol/L.

Briefly, pKi measured for CCN(CCCNC(=O)c1ccc(-c2ccncc2)cc1)CCNC(=O)c1cc(I)cc(OC)c1OC : 5.77

----------
# target or system: D3R (Rattus norvegicus, UniProt P19020)
# Construct: The ventral striatum was isolated by dissection on ice; tissue Innovative research, Inc; host or cells: Sprague–Dawley rat brain: ventral striatal homogenates; frozen brain sections
# Sequence (P19020 whole entry): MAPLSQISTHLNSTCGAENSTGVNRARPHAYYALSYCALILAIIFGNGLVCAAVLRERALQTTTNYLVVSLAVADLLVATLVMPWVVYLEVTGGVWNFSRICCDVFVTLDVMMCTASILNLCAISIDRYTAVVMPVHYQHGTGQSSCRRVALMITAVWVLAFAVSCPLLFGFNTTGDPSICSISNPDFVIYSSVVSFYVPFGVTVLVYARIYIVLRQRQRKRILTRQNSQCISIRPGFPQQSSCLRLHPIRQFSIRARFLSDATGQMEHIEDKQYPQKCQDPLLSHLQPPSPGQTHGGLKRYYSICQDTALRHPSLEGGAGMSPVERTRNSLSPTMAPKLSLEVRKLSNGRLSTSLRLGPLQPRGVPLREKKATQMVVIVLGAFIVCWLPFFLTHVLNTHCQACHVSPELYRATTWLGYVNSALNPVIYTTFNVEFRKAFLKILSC
# assay: Competition binding study of [125I]HY-3-24 in rat ventral striatal membranes
quantity name: Ki (nM)
Lab book: enter the figure in nM, no units written.

Entry CCc1cc(Cl)c(OC)c(C(=O)NC[C@@H]2CCCN2CC)c1O [Eticlopride] under D3R (Rattus norvegicus, UniProt P19020) had Ki of 0.25

These measurements were taken from paper PMC11036874.
